Molecular target: T1, cyno IL-33 N-His (cynomolgus monkey)
T1 chain: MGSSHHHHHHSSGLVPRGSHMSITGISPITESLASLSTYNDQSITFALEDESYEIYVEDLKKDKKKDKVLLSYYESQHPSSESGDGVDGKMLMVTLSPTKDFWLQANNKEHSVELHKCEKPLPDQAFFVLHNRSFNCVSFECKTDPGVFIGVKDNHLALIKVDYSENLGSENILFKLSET
Assay: SPR Biacore T200, 25 C
Procedure: The binding kinetics of the anti-IL-33 antibody 10C12.38.H6.87Y.58I IgG4 and each anti-IL-33 antibody listed in Table 5 (RG1-RG20) to IL-33 were measured using surface plasmon resonance (SPR) on a BIACORE® T200 instrument (GE Healthcare). […] Antibody binding was measured to human IL-33 (R&D systems, #3625-IL-010/CF) and cyno IL-33 N-His (SEQ ID NO: 317) (Genentech, Inc.). […] After injection, disassociation of the ligand from the antibody was monitored for 10 min in running buffer. […]
Kindly state log10 koff for each of the entries shown.
A value of 2 here means koff of 100 in s⁻¹, since values are log10.

Prompt: State the recorded log10 koff for this entry: H4H9675P (antibody, V domains shown) VH: EVQLVESGGNLEQPGGSLRLSCTASGFTFSRSAMNWVRRAPGKGLEWVSGISGSGGRTYYADSVKGRFTISRDNSKNTLYLQMNSLSAEDTAAYYCAKDSYTTSWYGGMDVWGHGTTVTVSS VL: DIQMTQSPSSVSASVGDRVTITCRASQGIFSWLAWYQQKPGKAPKLLIYAASSLQSGVPSRFSGSGSGTDFTLTISSLQPEDFAIYYCQQANSVPITFGQGTRLEIK
Response: -3.01

Prompt: Item: H4H9662P (antibody, V domains shown) VH: EVQLVESGGGLVQPGGSLRLSCAASGFTFSSYALTWVRQAPGKGLEWVSFISGSGGRPFYADSVKGRFTISRDNSKNMLYLQMNSLRAEDTAIYYCAKSLYTTSWYGGFDSWGQGTLVTVSS VL: DIQMTQSPSSVSASVGDRVTITCRASQGVVSWLAWYQQKPGKAPKLLIYAASSLQSGVPSRFSGSGSGTDFTLTISSLQPEDFATYYCQQSNSFPFTLGPGTKVDIK
Response: -3.50

Prompt: Item: H4H9670P (antibody, V domains shown) VH: EVQLVESGGGLVQPGGSLRLSCAASGFTLSSYAMSWVRQAPGKGLEWVSAISGSGGSTYYADSVKGRFTISRDNSKNSLYLQLNSLRAEDTAVYYCAKTLYTTSWYGGFQHWGQGTLVTVSS VL: DIQMTQSPSSVSASIGDRVTITCRASQGISSWLAWYQQKPGKVPKLLIYAASSLQSGFPSRFSGSGSGTDFTLTISSLQPEDFATYYCQQTHSFPWTVGQGTKVEIK
Response: -3.25

Prompt: Item: H4H9666P (antibody, V domains shown) VH: QVQLVQSGAEVKKPGASVKVSCKASGYTFTSYGISWVRQAPGQGLEWMGWIRAYNGYTNYAQKFQGRVTMTTDTSTNTAYMELRTLNSDDTAVYYCARDRYSGSFHGNFDYWGQGTLVTVSS VL: DIQMTQSPSSVSASVGDRVTITCRASQGIFSWLAWYQQKPGKAPKVLIYAASNLESGVPSRFSGSGSGTDFTLTISSLQPEDFATYYCQQANSLPLTFGGGTKVEIK
Response: -2.20

Prompt: Item: H4H9676P (antibody, V domains shown) VH: EVQLVESGGGLVQPGGSLRLSCSASGFTFSSYAMNWVRQAPGKGLEWVTAISGSGGGTYYADSVKGRFTISRDNSKNSLFLQLNSLRAEDTAVYYCAKQTYTSSWYGGFDIWGQGTMVTVSS VL: DIQMTQSPSSVSASVGDRVTITCRASQGFSSWLAWYQQIPGKAPKLLIYAASRLQSGVPSRFRGSGSGTDFTLTISSLQPEDFATYYCQQANSFPLTFGGGTKVEIK
Response: -2.61

FYI, the data here is from patent US20190092852A1.
